Biological target: Estrogen receptor (Homo sapiens) (UniProt P03372)
Sequence (P03372 whole entry, looked up): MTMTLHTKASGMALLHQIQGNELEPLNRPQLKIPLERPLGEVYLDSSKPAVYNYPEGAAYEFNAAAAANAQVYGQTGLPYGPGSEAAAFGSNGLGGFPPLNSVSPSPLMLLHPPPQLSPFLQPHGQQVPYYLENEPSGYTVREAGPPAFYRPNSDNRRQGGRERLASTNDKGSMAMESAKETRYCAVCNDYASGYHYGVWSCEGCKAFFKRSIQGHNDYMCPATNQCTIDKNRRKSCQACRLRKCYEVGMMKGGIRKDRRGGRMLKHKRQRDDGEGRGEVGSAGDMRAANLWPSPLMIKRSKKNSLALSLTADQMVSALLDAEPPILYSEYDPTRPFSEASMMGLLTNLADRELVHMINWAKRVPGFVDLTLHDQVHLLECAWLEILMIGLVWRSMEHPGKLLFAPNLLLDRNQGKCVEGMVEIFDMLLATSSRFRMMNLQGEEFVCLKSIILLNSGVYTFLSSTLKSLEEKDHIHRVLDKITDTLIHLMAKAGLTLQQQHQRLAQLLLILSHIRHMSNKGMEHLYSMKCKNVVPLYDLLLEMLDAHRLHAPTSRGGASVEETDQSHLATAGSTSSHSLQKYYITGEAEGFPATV
Test: ERalpha ligand binders by competition, primary screen, cell-based, Cos7 ERalpha-GFP, flow cytometry (AID 1211);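 note: 0% = DMSO vehicle wells and 100% = no E2-Alexa633 signal left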
Details: fluorescent ligand competition, binding inhibition, at 0.1 µM, stronger effect = higher value
recorded_metric: inhibition of ligand binding (%)

compound | value_reported
C=CCn1c(COc2cccc(C)c2)nnc1SCC(=O)NC(=O)NCc1ccco1 | 31
COc1ccc2[nH]c3c(c2c1)CCn1c-3nc2ccccc2c1=O | 36
CCOc1ccc(CC2S/C(=N/c3ccccn3)NC2=O)cc1 (stereo not given) | 2
O=C(OCC(=O)N1CCN(C(=O)c2ccco2)CC1)c1cc(-c2ccco2)nc2ccccc12 | 77
COc1ccc(-n2c(SCC(=O)Nc3nccs3)nc3sc4c(c3c2=O)CCN(C)C4)cc1 | 24
COC(=O)c1cc(-c2c(C)oc3cc(O)ccc3c2=O)c(C)o1 | 50
Nc1ncnc2c1ncn2C1CCC(CO)C(O)C1 (stereo not given) | 10
Cn1nc([N+](=O)[O-])c2c(-c3nc4ccccc4s3)c(N)n(C3CCCCC3)c2c1=O | 18
O=C(O)C1Nc2c(C(=O)N3CCOCC3)cccc2C2C=CCC12 (stereo not given) | 15
CN1C(=O)CC(C(=O)O)SC1=Nc1cc(Cl)c(O)c(Cl)c1 (stereo not given) | 51

---

The entries below come with measured inhibition of ligand binding values attached.
Biological target: Estrogen receptor (Homo sapiens) (UniProt P03372)
Experiment: ERalpha ligand binders by competition, primary screen, cell-based, Cos7 ERalpha-GFP, flow cytometry (AID 1211);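 note: 0% = DMSO vehicle wells and 100% = no E2-Alexa633 signal left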
Conditions: fluorescent ligand competition, binding inhibition, at 0.1 µM, stronger effect = higher value

molecule | inhibition of ligand binding (%)
CCc1ccc(-c2nn(-c3ccccc3)cc2CSC(=N)N)cc1 | 45
CC1(C)OC(C)(C)/C(=C/Nc2ccc(O)cc2)C1=O | 12
C/C(N)=C(/C#N)C(=O)CSc1nnc(Nc2ccccc2C)s1 | 18
Cc1noc(C)c1COc1ccc(C(=O)OCC(=O)N2c3ccccc3NC(=O)C2(C)C)cc1 | 16
COC(=O)c1ccccc1NC(=O)c1noc2c1CCC2 | 21
COc1ccccc1N1CCN(C(=O)c2cc3c(s2)CCC3)CC1 | 55
O=C1CC(=O)N2N=C(c3ccc([N+](=O)[O-])cc3)SC2=N1 | 8
Oc1ccc(-c2nccc(-c3cccs3)n2)cc1 | 28
O=C(CSc1nc2ccccc2c(=O)[nH]1)c1ccc(O)c(O)c1 | 5
Cc1ccc(-c2csc(NC(=O)c3ccno3)n2)cc1 | 29
Oc1ccc(N=Cc2ccc(O)c(O)c2)cc1 | 41
Cc1ccc(-c2nn(-c3ccccc3)cc2/C=N/NC(=O)c2ccc(Br)o2)cc1 | 49
O=C1c2ccccc2NC(c2ccc(O)cc2)N1/N=C/c1ccc(O)cc1 (centres undefined) | 65
CCCCOC(=O)c1c(C)oc2ccc(NS(=O)(=O)c3ccc4c5c(cccc35)C(=O)N4)cc12 | 51
Cc1c2cc(O)c(=O)cc-2oc2cc(O)c(O)cc12 | 51
Cc1ccc(C(=O)Nc2nc(-c3cccnc3)cs2)o1 | 20
NNc1nc2sc3c(c2c(=O)[nH]1)CCc1ccccc1-3 | 28
Nc1ccc2nc(-c3ccc(Cl)cc3)[nH]c2c1 | 30
COc1ccccc1C(=O)Nc1nc(-c2cccs2)c(NC(C)=O)s1 | 25
COc1cc(C(=O)Nc2nnc(-c3sccc3C)s2)cc(OC)c1OC | 75
Cc1ccc(S(=O)(=O)NCCn2c(C)cc3ccccc32)cc1 | 17
O=C1NC(c2ccc(Br)cc2)Nc2sc3c(c21)CCC3 (centres undefined) | 69
O=C(Cc1cccs1)Nc1nncs1 | 13
COc1cc(C2Nc3c(F)cccc3C3C=CCC32)cc(Br)c1OC (centres undefined) | 20

---

The entries below come with measured inhibition of ligand binding values attached.
Target: Estrogen receptor (Homo sapiens)
Assay: ERalpha ligand binders by competition, primary screen, cell-based, Cos7 ERalpha-GFP, flow cytometry (AID 1211);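 note: 0% = DMSO vehicle wells and 100% = no E2-Alexa633 signal left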
Settings: fluorescent ligand competition, at 10 µM, stronger effect = higher value

compound | inhibition of ligand binding, %
Oc1ccc(C2=Nn3c(nnc3-c3ccco3)SC2)cc1O | 32
Oc1c(C=Nc2cccc3cccnc23)sc2ccccc12 | 40
O=C(CSc1nc2ccccc2c(=O)[nH]1)c1ccc(O)c(O)c1 | 14
CCN1CCc2nc(NC(=O)Cc3ccc4c(c3)OCCO4)sc2C1 | 36
Cn1c(-c2ccc(N)cc2)nc2ccccc21 | 23
CCOc1cc2c(cc1OCC)C(C1CCCCC1)NCC2 (stereo unspecified) | 1
CC1CCN(Cc2c(O)ccc3c4c(c(=O)oc23)CCC4)CC1 | 0
O=C(Nc1nccs1)c1ccc2nccnc2c1 | 33
Cc1oc2c(C)c(O)ccc2c(=O)c1N1C(=O)c2ccccc2C1=O | 9
O=C(Nc1cc(C(F)(F)F)ccc1N1CCOCC1)C1Cc2ccccc2CN1C(=O)c1ccco1 (stereo unspecified) | 56
COc1cc([C@@H]2Nc3ccc(S(=O)(=O)Nc4ccccc4F)cc3[C@@H]3C=CC[C@@H]32)cc(OC)c1OC | 5

---

Molecular target: Estrogen receptor (Homo sapiens)
Assay: ERalpha ligand binders by competition, primary screen, cell-based, Cos7 ERalpha-GFP, flow cytometry (AID 1211);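 note: 0% = DMSO vehicle wells and 100% = no E2-Alexa633 signal left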
Details: fluorescent ligand competition, binding inhibition, at 0.1 µM, stronger effect = higher value
recorded_metric: inhibition of ligand binding (%)

molecule | recorded_metric | value_reported
Cc1ccc(C)n1-c1sccc1C(=O)O | inhibition of ligand binding | 36
COc1cc2c(cc1O)C(Cc1ccc(O)cc1)NCC2 (stereo not given) | inhibition of ligand binding | 8
Cc1ccc(S(=O)(=O)Cc2ccc(C(=O)N3CCN(Cc4ccccc4)CC3)o2)cc1 | inhibition of ligand binding | 9
Cc1ccccc1OCC1Cc2c(nc(N)c(C#N)c2N)O1 (stereo not given) | inhibition of ligand binding | 13
COCc1cc(=O)n2c(-c3ccc(C)cc3)n[nH]c2n1 | inhibition of ligand binding | 62
O=S(=O)(NCCc1csc(-c2cccnc2)n1)c1ccc(Cl)s1 | inhibition of ligand binding | 35
Cc1cc(=O)[nH]c(SCC(=O)NCc2ccco2)n1 | inhibition of ligand binding | 8
COc1cccc(NC(=O)CSc2nc3ccccc3c3nc4ccccc4n23)c1 | inhibition of ligand binding | 56
C/C(N)=C(/C#N)C(=O)CSc1nnc(COc2ccccc2Cl)o1 | inhibition of ligand binding | 8
O=C(CSc1nc2scc(-c3ccco3)c2c(=O)n1-c1ccccc1)NCC1CCCO1 (stereo not given) | inhibition of ligand binding | 21
Nc1ccc2nc(-c3ccc(N)c(Cl)c3)[nH]c2c1 | inhibition of ligand binding | 12
COc1cccc([C@@H]2Oc3ccc(OC)cc3C(=O)[C@H]2O)c1 | inhibition of ligand binding | 43
Cc1snc2sc(C(=O)c3ccc(Br)cc3)c(N)c12 | inhibition of ligand binding | 29
O=C(CSc1nnc(Nc2ccccc2F)s1)NCc1ccco1 | inhibition of ligand binding | 3
Cc1ccc(C)c(SCC(=O)OCC(=O)c2ccco2)c1 | inhibition of ligand binding | 28
O=c1cc(-c2ccc(O)c(O)c2)oc2c(C3O[C@H](CO)[C@@H](O)[C@H](O)[C@H]3O)c(O)cc(O)c12 (stereo not given in full) | inhibition of ligand binding | 27
COC(=O)c1ccc(-c2n[nH]c(=O)c3ccccc23)cc1 | inhibition of ligand binding | 16
Nc1ccc(N2CCN(C(=O)c3ccco3)CC2)cc1 | inhibition of ligand binding | 33
COc1ccc(Cn2c(=O)[nH]c3cc(C(=O)NCc4ccc5c(c4)OCO5)ccc3c2=O)cc1 | inhibition of ligand binding | 53
Nc1ccc2oc(-c3ccc4nc[nH]c4c3)nc2c1 | inhibition of ligand binding | 55
CCCC1Nc2ccc(C(=O)O)cc2C2C=CCC12 (stereo not given) | inhibition of ligand binding | 64
Cc1nn(-c2ccccc2)c2sc(C(=O)c3c(N)n(C)c(=O)n(C)c3=O)cc12 | inhibition of ligand binding | 16
CC1(N2CCOCC2)CC2(O)C(=[N+]1[O-])CCc1nonc12 (stereo not given) | inhibition of ligand binding | 46
CCOC(=O)N1CCN(S(=O)(=O)c2ccc(C(=O)Nc3nc4ccc(F)cc4s3)cc2)CC1 | inhibition of ligand binding | 11
O=c1nc2s/c(=C\c3ccco3)c(=O)n2nc1Cc1ccc(F)cc1 | inhibition of ligand binding | 61
Cc1cc(C(=O)O)ccc1-n1c(C)ccc1C | inhibition of ligand binding | 58
CCn1nnc(NC(=O)CSc2ccc(Cl)cc2)n1 | inhibition of ligand binding | 10
COc1ccc(NC(=O)C(c2ccccc2)N(C)C(=O)c2ccc(=O)[nH]c2)cc1 (stereo not given) | inhibition of ligand binding | 86
O=C(COC(=O)CN1C(=O)c2ccccc2C1=O)Nc1ncc(Cl)cc1Cl | inhibition of ligand binding | 14
Cc1ccc(S(=O)(=O)Cc2ccc(C(=O)N3CCc4ccccc4C3)o2)cc1 | inhibition of ligand binding | 57
Cc1cc(O)ccc1C1(c2ccc(O)cc2C)OC(=O)c2ccccc21 | inhibition of ligand binding | 64
C/C=C/COC(=O)c1[nH]c2c(c1C)C(=O)CC(c1ccco1)C2 (stereo not given) | inhibition of ligand binding | 27
Brc1cc2c(cc1C1Nc3ccccc3C3C=CCC31)OCO2 (stereo not given) | inhibition of ligand binding | 14
COc1cccc(C(=O)NC2CCN(C(=O)N3c4ccccc4Sc4ccccc43)CC2)c1 | inhibition of ligand binding | 13
Oc1ccc(-c2cn3cc(C(F)(F)F)ccc3n2)cc1 | inhibition of ligand binding | 7
CCCNCC1COc2ccccc2O1 (stereo not given) | inhibition of ligand binding | 21
COc1ccc(OC)c(NC(=O)c2cc(-c3ccc(C)cc3O)n[nH]2)c1 | inhibition of ligand binding | 5
COc1ccc(Cc2nnc(NC(=O)Cc3cccs3)s2)cc1 | inhibition of ligand binding | 47
CCCOc1ccc(-c2nn(-c3ccccc3)cc2/C=C2\SC(N)=NC2=O)cc1 | inhibition of ligand binding | 13
CCOc1ccc(Nc2oc(-c3ccccc3Cl)nc2C#N)cc1 | inhibition of ligand binding | 35
COc1cc(-c2nc3ccc4ccccc4c3c3c2CCC3)ccc1O | inhibition of ligand binding | 87
Cn1c(SCc2cc(=O)n3cc(Br)ccc3n2)nnc1C1COc2ccccc2O1 (stereo not given) | inhibition of ligand binding | 27
Cc1ccc2c(Cl)cc(Cl)c(OCC(=O)NCc3ccco3)c2n1 | inhibition of ligand binding | 18
CCOC(=O)c1ccc(NC(=O)CSc2nc(C)cc(=O)[nH]2)cc1 | inhibition of ligand binding | 21
COc1ccc(-c2nc(C(N)=O)c3[nH]c(=O)n(-c4cccc(Cl)c4)c3n2)cc1OC | inhibition of ligand binding | 6
